# solubility annotations
- EXPERIMENTAL PROTOCOL: Solubility of compound
- Assay type: physicochemical
ENDPOINT: solubility (µM)

# STRUCTURE SMILES, UNIT LABEL, RELATION SYMBOL, OBSERVED RESULT
measured = [
    ("CCOc1cc(Cl)c(C(=O)Nc2nc3ccc(S(=O)(=O)CCCN4CCN(C)CC4)cc3s2)cc1N1C[C@@H](C)O[C@@H](C)C1", "µM", "=", 95),
    ("CCOc1cc(Cl)c(-c2ncc(-c3nc4ccc(S(=O)(=O)C5CCN(C)CC5)cc4s3)c(=O)[nH]2)cc1N1CCOCC1", "µM", "=", 61),
    ("CCOc1cc(Cl)c(C(=O)Nc2nc3ccc(S(=O)(=O)C4CCN(C)CC4)cc3s2)cc1N1CCOCC1", "µM", "=", 1),
    ("CCOc1cc(Cl)c(-c2ccc(-c3nc4ccc(S(=O)(=O)C5CCN(C)CC5)cc4s3)c(=O)[nH]2)cc1N1CCOCC1", "µM", "<", 0.5),
    ("CCOc1cc(Cl)c(C(=O)Nc2nc3ccc(OC4CCN(C)CC4)cc3s2)cc1N1CCOCC1", "µM", "=", 5),
    ("CCOc1cc(Cl)c(C(=O)Nc2nc3ccc(CN4CCN(C)CC4)cc3s2)cc1N1CCOCC1", "µM", "=", 1.5),
    ("CCOc1cc(Cl)c(C(=O)Nc2nc3ccc(S(=O)(=O)CCCN4CCN(C)CC4)cc3s2)cc1N1CCO[C@H](C)C1", "µM", "=", 470),
]
